target or test system: Human immunodeficiency virus type 1 reverse transcriptase (Human immunodeficiency virus 1)
experimental protocol: Inhibition of HIV-1 reverse transcriptase associated RNA-dependent DNA polymerase activity using poly(A)-oligo(dT) as template/primer incubated for 30 mins by multilabel counter plate reader analysis
property label: IC50

smiles record: O=C(/C=C/c1ccc2c(c1)c(=O)c(C(=O)O)cn2Cc1ccc(F)cc1)c1ccccc1
measured: > 100 µM

----------
target or test system: Human immunodeficiency virus type 1 integrase (Human immunodeficiency virus 1)
Sequence (Q7ZJM1 whole entry): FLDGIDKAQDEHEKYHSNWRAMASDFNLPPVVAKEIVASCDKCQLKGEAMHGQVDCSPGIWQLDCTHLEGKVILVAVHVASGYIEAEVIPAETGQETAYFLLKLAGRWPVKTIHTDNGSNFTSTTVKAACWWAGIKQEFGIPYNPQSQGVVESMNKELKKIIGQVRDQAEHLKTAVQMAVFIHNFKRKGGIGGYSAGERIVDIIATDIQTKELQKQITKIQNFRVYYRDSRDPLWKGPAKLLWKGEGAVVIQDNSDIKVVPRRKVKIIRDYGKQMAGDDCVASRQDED
experimental protocol: Inhibition of recombinant His-tagged HIV-1 NL4-3 integrase expressed in Escherichia coli BL21 pLys using GTGTGGAAAATCTCTAGCA/ACTGCTAGAGATTTTCCACAC as DNA substrate incubated for 2 hrs by densitometric analysis
pIC50: −log10 of the molar value.
In this section we review reported pIC50 values for a set of molecules.

smiles record: CC(=O)c1ccc2c(c1)c(=O)c(C(=O)O)cn2Cc1ccc(F)cc1
pIC50: < 4.00
//
smiles record: CCOC(=O)c1cn(Cc2ccc(F)cc2)c2ccc(C(C)=O)cc2c1=O
pIC50: < 4.00
//
smiles record: O=C(O)c1cn(Cc2ccc(F)cc2)c2ccc(OCc3cccc(Cl)c3Cl)cc2c1=O
pIC50: < 4.00
//
smiles record: O=C(O)c1cn(Cc2ccc(F)cc2)c2ccc(OCc3cccc4ccccc34)cc2c1=O
pIC50: < 4.00
//
smiles record: O=C(O)c1cn(Cc2ccc(F)cc2)c2ccc(OCc3ccc(-c4ccccc4)cc3)cc2c1=O
pIC50: < 3.60
//
smiles record: O=C(O)c1cn(Cc2ccc(F)cc2)c2ccc(OCc3ccc4c(c3)OCO4)cc2c1=O
pIC50: < 4.00
//
smiles record: CCOC(=O)/C=C/C(=O)/C=C/c1cccn1Cc1ccccc1Cl
pIC50: < 4.00
